Attribution: patent US20230372448A1

# System Under Test: human GCG receptor (human, UniProt P47871 26-477)
# Sequence (P47871 26-477): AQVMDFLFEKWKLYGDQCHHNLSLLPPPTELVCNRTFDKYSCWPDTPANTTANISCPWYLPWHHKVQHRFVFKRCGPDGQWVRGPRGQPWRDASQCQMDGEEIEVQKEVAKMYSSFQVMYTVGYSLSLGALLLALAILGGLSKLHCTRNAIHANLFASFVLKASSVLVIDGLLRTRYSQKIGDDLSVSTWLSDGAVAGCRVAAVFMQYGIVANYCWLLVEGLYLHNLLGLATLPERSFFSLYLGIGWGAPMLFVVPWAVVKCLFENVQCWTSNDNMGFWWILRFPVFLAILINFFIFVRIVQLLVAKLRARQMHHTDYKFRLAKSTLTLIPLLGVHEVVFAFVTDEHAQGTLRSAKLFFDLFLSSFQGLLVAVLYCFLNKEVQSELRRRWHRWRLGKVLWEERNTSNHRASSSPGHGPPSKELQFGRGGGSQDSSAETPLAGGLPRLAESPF
# Assay Name: cell-based or functional assay
Positions of bridges follow the written chain, without caps; N, C: chain ends. Non-standard residues stand in square brackets, D forms with d. No end group written: not given here. *: point of attachment. Acetyl(2-(4-imidazolyl)) = O=C(Cc1c[nH]cn1)*; Aib = CC(C)(N)C(=O)O
Assay Endpoint: In vitro activity (%) compared with native peptide: vs Glucagon

[
  {
    "Binder": "Y[Aib]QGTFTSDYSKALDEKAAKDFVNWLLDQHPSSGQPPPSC (bridge 16-20) [triple agonist of SEQ ID NO: 102]",
    "Value Operator": "=",
    "Measured": 29.5
  },
  {
    "Binder": "{Acetyl(2-(4-imidazolyl))}-[Aib]QGTFTSDYSIAMDEKHCKDFVNWLLNTK (bridge 15-19; not fully specified) [triple agonist of SEQ ID NO: 60]",
    "Value Operator": "<",
    "Measured": 0.1
  },
  {
    "Binder": "Y[Aib]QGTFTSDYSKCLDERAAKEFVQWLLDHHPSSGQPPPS (bridge 16-20; not fully specified) [triple agonist of SEQ ID NO: 69]",
    "Value Operator": "=",
    "Measured": 9.6
  },
  {
    "Binder": "Y[Aib]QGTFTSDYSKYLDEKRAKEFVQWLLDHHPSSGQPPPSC (bridge 16-20; not fully specified) [triple agonist of SEQ ID NO: 42]",
    "Value Operator": "=",
    "Measured": 206
  },
  {
    "Binder": "H[Aib]QGTFTSDVSSYLLGQQQKEFIAWLVKGGGPSSGAPPPSC (not fully specified) [triple agonist of SEQ ID NO: 5]",
    "Value Operator": "<",
    "Measured": 0.1
  }
]
